Value source: the supplement of paper PMC7411054

Tested on: A549-TP53BP1-CLTA
Experiment: phenotypically active (imaging signature differs from DMSO and reproducible) at any of 0.3-9 uM (binary (1 = active, 0 = inactive)); higher = active
Details: treatment time: 24 h
measured.endpoint: phenotypically active
Answers are plain numbers.

N#CC(C#N)=Cc1ccc(O)c(O)c1
0
CCN(CC)CCN1C(=O)CN=C(c2ccccc2F)c2cc(Cl)ccc21
0
COC(=O)[C@@]1(O)C[C@H]2O[C@]1(C)n1c3ccccc3c3c4c(c5c6ccccc6n2c5c31)C(=O)NC4
1

Parameters: items (list). Returns: phenotypically active for each item.
1. COc1cc2c(cc1OC)[C@@]13CCN4CC5=CCO[C@H]6CC(=O)N2[C@H]1[C@H]6[C@H]5C[C@H]43
2. BrC1C(Br)C(Br)C(Br)C(Br)C1Br (centres undefined)
3. Oc1ccc2c3c1O[C@H]1[C@@H](O)CC[C@@]4(O)[C@@H](C2)N(CC2CCC2)CC[C@]314
4. COc1c2c(cc3c1OCO3)CC[N+](C)=C2 [Cotarnine chloride]
5. CN1C[C@H](C(=O)N[C@]2(C)O[C@@]3(O)[C@@H]4CCCN4C(=O)[C@H](Cc4ccccc4)N3C2=O)C=C2c3cccc4[nH]cc(c34)C[C@H]21

0
0
0
0
1

Hey, can you go through the list below and give me phenotypically active for every item?
1. CC(C)(O)[C@H]1O[C@H]2CC[C@@]3(C)[C@@](O)(CC[C@H]4Cc5c([nH]c6ccccc56)[C@@]43C)C2=CC1=O
2. C[C@]12CC[C@H]3[C@@H](CC[C@]4(O)C[C@@H](O)CC[C@]34C=O)[C@@]1(O)CC[C@@H]2C1=CC(=O)OC1
3. CC(=O)O[C@H]1C[C@@H]2CC[C@@H]3[C@H](CC[C@@]4(C)[C@H]3C[C@H]([N+]3(C)CCCCC3)[C@@H]4OC(C)=O)[C@@]2(C)C[C@@H]1[N+]1(C)CCCCC1
4. C[C@]12COC(=O)C[C@@H]1CC[C@@H]1[C@@H]2CC[C@@]2(C)[C@H]1CC[C@]2(C)O
5. CCN1C[C@]2(COC)CC[C@H](OC)[C@]34[C@@H]5C[C@H]6[C@H](OC)[C@@H]5[C@@]5(C[C@@H]6OC)OCO[C@@]5([C@H]13)[C@@H](O)[C@H]24
6. C[C@@H]1C[C@@H]([C@H](O)CC2CC(=O)NC(=O)C2)C(=O)[C@@H](C)C1 [Cycloheximide]

1. 0
2. 1
3. 0
4. 0
5. 0
6. 1

====

Test system: A549-CANX-COX4
Assay: phenotypically active (imaging signature differs from DMSO and reproducible) at any of 0.3-9 uM (binary (1 = active, 0 = inactive)); higher = active
Conditions: treatment time: 24 h
Structures can show the parent of a compound that is named as a salt.
I'd be grateful if you could share measured phenotypically active for these entries.

Field: example entries. Status: answers known.
O=C(NCCN1CCC2(CC1)C(=O)NCN2c1cccc(F)c1)c1ccc(F)c(F)c1 [ML 298 hydrochloride]
1 (active)
CC(C)CC(N(C)C)C1(c2ccc(Cl)cc2)CCC1 (stereo not given)
0 (inactive)
Cc1ccc(C[N+](C)(C)C)o1 [5-Methylfurmethiodide]
0 (inactive)
C[C@]12Cc3cn[nH]c3C[C@@H]1CC[C@@H]1[C@@H]2CC[C@@]2(C)[C@H]1CC[C@]2(C)O
0 (inactive)
CCCN1CCC[C@@H]2Cc3n[nH]cc3C[C@H]21 [(-)-Quinpirole hydrochloride]
0 (inactive)
CC(C)(C)c1cc(C=C(C#N)C#N)cc(C(C)(C)C)c1O
1 (active)
CN1[C@@H]2CC(=O)C[C@H]1[C@H](O)C2 [6-Hydroxytropinone]
0 (inactive)
C[C@@H](CO)NC(=O)[C@@H]1C=C2c3cccc4[nH]cc(c34)C[C@H]2N(C)C1
0 (inactive)

I need phenotypically active for every entry listed below, if you could help.
1. O=C1NC(=S)N(c2cccc(Br)c2)C(=O)/C1=C/c1ccco1
2. C[C@H]1CCC2(NC1)O[C@H]1C[C@H]3[C@@H]4CC[C@H]5C[C@@H](O[C@@H]6O[C@H](CO)[C@H](O[C@@H]7O[C@H](CO)[C@@H](O)[C@H](O[C@@H]8OC[C@@H](O)[C@H](O)[C@H]8O)[C@H]7O[C@@H]7O[C@H](CO)[C@@H](O)[C@H](O)[C@H]7O)[C@H](O)[C@H]6O)CC[C@]5(C)[C@H]4CC[C@]3(C)[C@H]1[C@@H]2C (stereo not given in full)
3. C[C@H]1CC[C@@H]2N(C1)C[C@H]1[C@@H]3C[C@H]4[C@@H](CC(=O)[C@H]5C[C@@H](O)CC[C@@]54C)[C@@H]3CC[C@H]1[C@]2(C)O

["0 (inactive)", "0 (inactive)", "0 (inactive)"]
